System Tested: Transcription factor p65 (Mus musculus, UniProt Q04207)
Sequence (Q04207 whole entry): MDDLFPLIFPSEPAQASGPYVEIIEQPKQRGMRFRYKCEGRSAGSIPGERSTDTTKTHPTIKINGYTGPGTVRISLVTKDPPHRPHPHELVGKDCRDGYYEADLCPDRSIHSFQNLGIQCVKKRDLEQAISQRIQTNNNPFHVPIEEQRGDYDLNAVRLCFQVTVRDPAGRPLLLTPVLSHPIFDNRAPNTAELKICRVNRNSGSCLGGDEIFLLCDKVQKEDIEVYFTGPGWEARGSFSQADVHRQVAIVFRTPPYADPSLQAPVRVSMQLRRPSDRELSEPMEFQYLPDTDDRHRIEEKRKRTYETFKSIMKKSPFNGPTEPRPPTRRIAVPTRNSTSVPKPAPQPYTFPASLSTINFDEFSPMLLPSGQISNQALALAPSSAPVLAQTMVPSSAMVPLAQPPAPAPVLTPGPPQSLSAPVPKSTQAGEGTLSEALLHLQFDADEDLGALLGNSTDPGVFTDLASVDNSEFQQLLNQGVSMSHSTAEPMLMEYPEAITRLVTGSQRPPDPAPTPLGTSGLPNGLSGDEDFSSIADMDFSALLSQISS
Method: Binding affinity to NF-kappaB p65 in mouse RAW264.7 cells assessed as dissociation constant by SPR analysis
pKd: −log10 of the molar value.

Smiles Structure	pKd
Cc1cccc([C@H](C)C[C@H](C)CO)c1/C=C/C=C/C(=O)O	4.35

Reference for the values: ChEMBL document CHEMBL5537204
